TARGET: CXCL10 (Homo sapiens, UniProt P02778)
Sequence (P02778 22-98, species assumed): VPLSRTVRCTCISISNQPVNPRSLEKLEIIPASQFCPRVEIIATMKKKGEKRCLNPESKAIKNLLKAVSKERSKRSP
EXPERIMENT_NOTES: Chemokine glycan microarray binding assay
EXPERIMENTAL_SETUP: maximum RFU set as 100% binding, average across 2 glycan concentrations and 3 chemokine dilutions (n=6)
MEASURED_QUANTITY: mean rank binding to CXCL10 (%)
Just the number in %, nothing appended.

Query :: Supply mean rank binding to CXCL10 measured with CXCL10 (Homo sapiens, UniProt P02778) for CC(=O)N[C@H]1[C@@H](O[C@H]2[C@H](O)[C@@H](O)[C@H](OCCCN)O[C@H]2C(=O)O)O[C@H](COP(=O)(O)O)[C@@H](O[C@@H]2O[C@@H](C(=O)O)[C@@H](O[C@H]3O[C@H](COP(=O)(O)O)[C@@H](O)[C@H](O)[C@H]3NC(C)=O)[C@H](O)[C@H]2O)[C@@H]1O [Example 26] .
Result :: 48

Query :: Supply mean rank binding to CXCL10 measured with CXCL10 (Homo sapiens, UniProt P02778) for NCCCO[C@@H]1O[C@@H](C(=O)O)[C@@H](O[C@H]2O[C@H](COS(=O)(=O)O)[C@@H](O[C@@H]3O[C@@H](C(=O)O)[C@@H](O[C@H]4O[C@H](COS(=O)(=O)O)[C@@H](O)[C@H](OS(=O)(=O)O)[C@H]4N)[C@H](O)[C@H]3O)[C@H](OS(=O)(=O)O)[C@H]2N)[C@H](O)[C@H]1O [Example 17] .
Result :: 96

Query :: Supply mean rank binding to CXCL10 measured with CXCL10 (Homo sapiens, UniProt P02778) for NCCOCCO[C@@H]1O[C@@H](C(=O)O)[C@@H](OS(=O)(=O)O)[C@H](O)[C@H]1OS(=O)(=O)O [Example 3] .
Result :: 24

Query :: Supply mean rank binding to CXCL10 measured with CXCL10 (Homo sapiens, UniProt P02778) for NCCCO[C@@H]1OC(C(=O)O)[C@@H](O[C@H]2OC(CO)[C@@H](O[C@@H]3OC(C(=O)O)[C@@H](O[C@H]4OC(CO)[C@@H](O)C(O)C4N)C(O)C3O)C(O)C2N)C(O)C1O (some centres unmarked) [Example 15] .
Result :: 39

Query :: Supply mean rank binding to CXCL10 measured with CXCL10 (Homo sapiens, UniProt P02778) for NCCOCCO[C@@H]1O[C@@H](C(=O)O)[C@@H](O[C@@H]2O[C@@H](C(=O)O)[C@@H](O[C@@H]3O[C@@H](C(=O)O)[C@@H](OS(=O)(=O)O)[C@H](O)[C@H]3OS(=O)(=O)O)[C@H](O)[C@H]2OS(=O)(=O)O)[C@H](O)[C@H]1OS(=O)(=O)O [Example 9] .
Result :: 82

---

TARGET: CCL2 (Homo sapiens)
EXPERIMENT_NOTES: Chemokine glycan microarray binding assay
EXPERIMENTAL_SETUP: maximum RFU set as 100% binding, average across 2 glycan concentrations and 3 chemokine dilutions (n=6)
Method: Microarray Studies: The compounds of the present invention were covalently immobilized on epoxy group collated glass slides. […] Bound antibodies were detected by incubating with biotinylated secondary detections (1 ng/μL) diluted in PBS, 200 μL/block at RT for 1 h. Slides were washed 4 times with PBST, then with PBS (without Tween-20) for 2 min and biotinylated antibodies were detected with Cy3-SA (1.2 μg/mL). […]
Can you tell me mean rank binding to CCL2 for the items I'm about to list?
Just the number in %, nothing appended.

Query :: Specify measured mean rank binding to CCL2 for NCCOCCO[C@@H]1OC(C(=O)O)[C@@H](O[C@@H]2OC(C(=O)O)[C@@H](O)C(O)C2O)C(O)C1O (stereo partly shown) [Example 4] .
Result :: 2

Query :: Specify measured mean rank binding to CCL2 for NCCOCCO[C@@H]1O[C@@H](C(=O)O)[C@@H](O[C@@H]2O[C@@H](C(=O)O)[C@@H](OS(=O)(=O)O)[C@H](O)[C@H]2OS(=O)(=O)O)[C@H](O)[C@H]1OS(=O)(=O)O [Example 6] .
Result :: 25

Query :: Specify measured mean rank binding to CCL2 for CC(=O)N[C@H]1[C@@H](O[C@H]2[C@H](O)[C@@H](O)[C@H](OCCCN)O[C@H]2C(=O)O)O[C@H](COP(=O)(O)O)[C@@H](O[C@@H]2O[C@@H](C(=O)O)[C@@H](O[C@H]3O[C@H](COP(=O)(O)O)[C@@H](O)[C@H](O)[C@H]3NC(C)=O)[C@H](O)[C@H]2O)[C@@H]1O [Example 26] .
Result :: 1

Query :: Specify measured mean rank binding to CCL2 for NCCCO[C@@H]1O[C@@H](C(=O)O)[C@@H](O[C@H]2O[C@H](CO)[C@@H](O[C@@H]3O[C@@H](C(=O)O)[C@@H](O[C@H]4O[C@H](CO)[C@@H](O)[C@H](OS(=O)(=O)O)[C@H]4N)[C@H](O)[C@H]3OS(=O)(=O)O)[C@H](OS(=O)(=O)O)[C@H]2N)[C@H](O)[C@H]1OS(=O)(=O)O [Example 18] .
Result :: 1

---

TARGET: CCL2 (Homo sapiens, UniProt P13500)
Sequence (P13500 24-99, species assumed): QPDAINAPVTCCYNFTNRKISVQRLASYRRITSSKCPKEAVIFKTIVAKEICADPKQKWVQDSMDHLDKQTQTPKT
EXPERIMENT_NOTES: Chemokine glycan microarray binding assay
EXPERIMENTAL_SETUP: maximum RFU set as 100% binding, average across 2 glycan concentrations and 3 chemokine dilutions (n=6)
Can you tell me mean rank binding to CCL2 for the items I'm about to list?
Please answer using a numeric value trailed by its unit.

Query :: Specify measured mean rank binding to CCL2 for NCCOCCO[C@@H]1O[C@@H](C(=O)O)[C@@H](O[C@@H]2O[C@@H](C(=O)O)[C@@H](O[C@@H]3O[C@@H](C(=O)O)[C@@H](O[C@@H]4O[C@@H](C(=O)O)[C@@H](OS(=O)(=O)O)[C@H](O)[C@H]4O)[C@H](O)[C@H]3O)[C@H](O)[C@H]2O)[C@H](O)[C@H]1O [Example 11] .
Result :: 67%

Query :: Specify measured mean rank binding to CCL2 for NCCOCCO[C@@H]1OC(C(=O)O)[C@@H](O[C@@H]2OC(C(=O)O)[C@@H](O[C@@H]3OC(C(=O)O)[C@@H](O)C(O)C3O)C(O)C2O)C(O)C1O (some centres unmarked) [Example 7] .
Result :: 36%

---

TARGET: CXCL8 (Homo sapiens)
Sequence (P10145 21-99, species assumed): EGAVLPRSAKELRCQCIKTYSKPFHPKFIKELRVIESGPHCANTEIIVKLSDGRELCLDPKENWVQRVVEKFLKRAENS
EXPERIMENT_NOTES: Chemokine glycan microarray binding assay
EXPERIMENTAL_SETUP: maximum RFU set as 100% binding, average across 2 glycan concentrations and 3 chemokine dilutions (n=6)
MEASURED_QUANTITY: mean rank binding to CXCL8 (%)
Just the number in %, nothing appended.

Query :: Supply mean rank binding to CXCL8 measured with CXCL8 (Homo sapiens) for CC(=O)N[C@H]1[C@@H](O[C@H]2[C@H](O)[C@@H](O)[C@H](OCCCN)O[C@H]2C(=O)O)O[C@H](COP(=O)(O)O)[C@@H](O[C@@H]2O[C@@H](C(=O)O)[C@@H](O[C@H]3O[C@H](COP(=O)(O)O)[C@@H](O)[C@H](O)[C@H]3NC(C)=O)[C@H](O)[C@H]2O)[C@@H]1O .
Result :: 10

Query :: Supply mean rank binding to CXCL8 measured with CXCL8 (Homo sapiens) for NCCOCCO[C@@H]1OC(C(=O)O)[C@@H](O[C@@H]2OC(C(=O)O)[C@@H](O[C@@H]3OC(C(=O)O)[C@@H](O)C(O)C3O)C(O)C2O)C(O)C1O (stereo partly drawn) .
Result :: 63

Query :: Supply mean rank binding to CXCL8 measured with CXCL8 (Homo sapiens) for NCCOCCO[C@@H]1OC(C(=O)O)[C@@H](O[C@@H]2OC(C(=O)O)[C@@H](O)C(O)C2O)C(O)C1O (stereo partly drawn) .
Result :: 12

Query :: Supply mean rank binding to CXCL8 measured with CXCL8 (Homo sapiens) for NCCOCCO[C@@H]1O[C@@H](C(=O)O)[C@@H](O[C@@H]2O[C@@H](C(=O)O)[C@@H](O[C@@H]3O[C@@H](C(=O)O)[C@@H](O[C@@H]4O[C@@H](C(=O)O)[C@@H](OS(=O)(=O)O)[C@H](O)[C@H]4OS(=O)(=O)O)[C@H](O)[C@H]3OS(=O)(=O)O)[C@H](O)[C@H]2OS(=O)(=O)O)[C@H](O)[C@H]1OS(=O)(=O)O .
Result :: 96

Query :: Supply mean rank binding to CXCL8 measured with CXCL8 (Homo sapiens) for CC(=O)N[C@H]1[C@@H](O[C@H]2[C@H](O)[C@@H](OP(=O)(O)O)[C@H](OCCCN)O[C@H]2C(=O)O)O[C@H](COP(=O)(O)O)[C@@H](O[C@@H]2O[C@@H](C(=O)O)[C@@H](O[C@H]3O[C@H](COP(=O)(O)O)[C@@H](O)[C@H](O)[C@H]3NC(C)=O)[C@H](O)[C@H]2OP(=O)(O)O)[C@@H]1O .
Result :: 29

Query :: Supply mean rank binding to CXCL8 measured with CXCL8 (Homo sapiens) for CC(=O)NC1C(O)[C@H](O)C(CO)O[C@@H]1O[C@@H]1C(C(=O)O)O[C@@H](O[C@@H]2C(CO)O[C@H](O[C@@H]3C(C(=O)O)O[C@@H](OCCCN)C(O)C3O)C(NC(C)=O)C2O)C(O)C1O (stereo partly drawn) .
Result :: 3
